- Test summary: Peptide hydrogel formation, vial-inverting method
- Assay type: physicochemical
- Condition notes: concentration at which the state was recorded: lowest of 30, 60, 90, 120 mM that gave a gel; 120 mM for non-gelating peptides
Where a SMILES comes first, the peptide text is derived from it.
Test readout: Concentration
Write down the value, and be sure its unit follows.

INPUT: Give the measured Concentration of N[C@@H](CC(=O)O)C(=O)N[C@@H](CC(=O)O)C(=O)N[C@@H](CC(=O)O)C(=O)N[C@@H](CC(=O)O)C(=O)O [DDDD] (H-DDDD-OH) .
OUTPUT: 120000 µM

INPUT: Then CC(C)C[C@H](N)C(=O)N[C@@H](Cc1c[nH]c2ccccc12)C(=O)N[C@@H](Cc1ccccc1)C(=O)N[C@@H](Cc1ccccc1)C(=O)O [LWFF] (H-LWFF-OH) ?
OUTPUT: 30000 µM

INPUT: Then CC[C@H](C)[C@H](NC(=O)[C@H](Cc1ccccc1)NC(=O)[C@@H](NC(=O)[C@@H](N)Cc1c[nH]c2ccccc12)C(C)C)C(=O)O [WVFI] (H-WVFI-OH) ?
OUTPUT: 120000 µM

###

- Test summary: Transmission electron microscope (negative staining) of peptide assemblies
- Condition notes: TEM, negative staining with uranyl acetate, 120 kV; line of the table gives 30 mM
Where a SMILES comes first, the peptide text is derived from it.
Test readout: Morphology

                                   compound  test_readout  value_reported
0  CC(C)[C@H](NC(=O)CN)C(=O)N[C@@H](Cc1ccccc1)C(=O)N[C@@H](Cc1ccc(O)cc1)C(=O)O [GVFY] (H-GVFY-OH)    Morphology           fibre

###

- Test summary: Peptide hydrogel formation, vial-inverting method
- Assay type: physicochemical
- Set-up: key: 0: no hydrogel; 1: hydrogel
- Condition notes: peptide concentration 120 mM; vial-inverting method; 1 = hydrogel, 0 = no hydrogel
Where a SMILES comes first, the peptide text is derived from it.
Would you mind telling me the reported GELATION of each entry?
Note: the reply should be a number with no unit written.

INPUT: Give the measured GELATION of N[C@@H](Cc1c[nH]cn1)C(=O)N[C@@H](Cc1c[nH]cn1)C(=O)N[C@@H](Cc1c[nH]cn1)C(=O)N[C@@H](Cc1c[nH]cn1)C(=O)O [HHHH] (H-HHHH-OH) .
OUTPUT: 0

INPUT: Then CC(C)C[C@H](N)C(=O)N[C@H](C(=O)N1CCC[C@H]1C(=O)N[C@@H](Cc1ccccc1)C(=O)O)C(C)C [LVPF] (H-LVPF-OH) ?
OUTPUT: 0

INPUT: Then CC(C)[C@H](N)C(=O)N[C@@H](Cc1ccccc1)C(=O)N[C@@H](Cc1c[nH]cn1)C(=O)N[C@@H](CC(N)=O)C(=O)O [VFHN] (H-VFHN-OH) ?
OUTPUT: 0

###

- Test summary: Peptide hydrogel formation, vial-inverting method
- Format: physicochemical
- Parameters: key: 0: no hydrogel; 1: hydrogel
- Condition notes: peptide concentration 120 mM; vial-inverting method; 1 = hydrogel, 0 = no hydrogel
Where a SMILES comes first, the peptide text is derived from it.
Would you mind telling me the reported GELATION of each entry?
Note: the reply should be a number with no unit written.

INPUT: Give the measured GELATION of CC(C)C[C@H](NC(=O)[C@@H](N)CC(C)C)C(=O)N[C@@H](CCCNC(=N)N)C(=O)N[C@@H](CCC(N)=O)C(=O)O [LLRQ] (H-LLRQ-OH) .
OUTPUT: 0

INPUT: Then CC(C)C[C@H](NC(=O)CN)C(=O)N[C@@H](CC(C)C)C(=O)N[C@@H](Cc1ccc(O)cc1)C(=O)O [GLLY] (H-GLLY-OH) ?
OUTPUT: 0

INPUT: Then CC(C)C[C@H](NC(=O)[C@H](C)NC(=O)[C@@H](N)C(C)C)C(=O)N[C@@H](CCC(=O)O)C(=O)O [VALE] (H-VALE-OH) ?
OUTPUT: 0
